Below, each entry is listed with its recorded % inhibition ApPOL 90' 40.
Tgt: UniProtKB Q8ILY1
Test: Fluorescence-based high-throughput DNA polymerase assay (molecular beacon), primary screen and dose-response
Format: biochemical
Settings: DRC-2; read at 90'; concentration 40
Please state the figure in %; there is no need to write the unit.

[[record]]
compound = "COc1ccccc1CC(=O)N1CCc2c(nc3cc(-c4ccccc4Cl)[nH]n3c2=O)C1"
tgt = "UniProtKB Q8ILY1"
reported = 63

[[record]]
compound = "Nc1cc(Oc2ccc(O)c(N)c2)ccc1O"
tgt = "UniProtKB Q8ILY1"
reported = 76

[[record]]
compound = "CC(=O)Nc1cc(C(=O)c2cccs2)nn(-c2ccc(Cl)cc2)c1=O"
tgt = "UniProtKB Q8ILY1"
reported = 42


Attention now turns to another entry.
In plain terms, Cn1nc(-c2nnc(-c3ccccc3F)o2)c2c1CCN(C(=O)c1ccccc1Cl)C2 has a documented % inhibition ApPOL 90' 40 of 52

====

Tgt: P. falciparum apicoplast DNA polymerase (Pf-apPOL) (Plasmodium falciparum, UniProt Q8ILY1)
Sequence (Q8ILY1 entry or part of it): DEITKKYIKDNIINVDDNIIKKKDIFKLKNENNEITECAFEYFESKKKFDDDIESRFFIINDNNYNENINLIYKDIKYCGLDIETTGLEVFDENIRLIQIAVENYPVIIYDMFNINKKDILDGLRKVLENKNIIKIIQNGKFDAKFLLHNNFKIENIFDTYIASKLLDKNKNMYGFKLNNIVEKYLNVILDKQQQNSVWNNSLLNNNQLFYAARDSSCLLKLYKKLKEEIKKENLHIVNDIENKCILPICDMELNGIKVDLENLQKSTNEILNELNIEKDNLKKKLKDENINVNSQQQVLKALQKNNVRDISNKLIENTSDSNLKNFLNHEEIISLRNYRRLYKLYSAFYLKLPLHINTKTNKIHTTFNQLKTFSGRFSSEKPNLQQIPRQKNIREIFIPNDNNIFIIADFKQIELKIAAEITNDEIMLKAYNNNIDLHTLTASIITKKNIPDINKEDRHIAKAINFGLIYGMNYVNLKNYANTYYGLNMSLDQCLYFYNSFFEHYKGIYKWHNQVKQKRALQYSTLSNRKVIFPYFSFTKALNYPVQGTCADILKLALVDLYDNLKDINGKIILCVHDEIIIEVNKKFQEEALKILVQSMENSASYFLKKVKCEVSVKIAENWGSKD
Test: Fluorescence-based high-throughput DNA polymerase assay (molecular beacon), primary screen and dose-response
Assay type: biochemical
Settings: DRC-1; concentration 2.5; 10'
Below, each entry is listed with its recorded % inhibition Apo pol 10'.
Please state the figure in %; there is no need to write the unit.

[[record]]
compound_structure_string = "Cc1ccnc(NS(=O)(=O)c2ccc(-n3cccc3)cc2)n1"
tgt = "P. falciparum apicoplast DNA polymerase (Pf-apPOL) (Plasmodium falciparum, UniProt Q8ILY1)"
experimental_endpoint = "% inhibition Apo pol 10'"
quantity_unit = "%"
reported = 6.567

[[record]]
compound_structure_string = "Cc1ccc(C2=N/C(=C\\c3ccc(I)o3)C(=O)O2)cc1[N+](=O)[O-]"
tgt = "P. falciparum apicoplast DNA polymerase (Pf-apPOL) (Plasmodium falciparum, UniProt Q8ILY1)"
experimental_endpoint = "% inhibition Apo pol 10'"
quantity_unit = "%"
reported = 15.7556


In plain terms, O=C1c2ccccc2C(=O)c2c1oc1c3c(ccc21)OCN(C1CCCC1)C3 has a documented % inhibition Apo pol 10' of 14.122

====

Tgt: P. falciparum apicoplast DNA polymerase (Pf-apPOL) (Plasmodium falciparum, UniProt Q8ILY1)
Test: Fluorescence-based high-throughput DNA polymerase assay (molecular beacon), primary screen and dose-response
Format: biochemical
Settings: DRC-1; concentration 80; 90'
Below, each entry is listed with its recorded % inhibition Apol 90'.
Please state the figure in %; there is no need to write the unit.

In plain terms, COc1cc(/C=C2\C(=O)N(c3ccc(C(=O)O)cc3)N=C2C(F)(F)F)ccc1OCC(C)C has a documented % inhibition Apol 90' of 93.9861

In plain terms, COc1ccc(NC(=O)Cn2nc3c(cc2=O)CCC3)cc1Cl has a documented % inhibition Apol 90' of 90

In plain terms, Cc1ccc(C2=N/C(=C\c3ccc(I)o3)C(=O)O2)cc1[N+](=O)[O-] has a documented % inhibition Apol 90' of 89.2693

In plain terms, Oc1cccnc1/N=C/c1cc(I)cc(I)c1O has a documented % inhibition Apol 90' of 87.3428

In plain terms, O=C1c2ccccc2C(=O)c2c1oc1c3c(ccc21)OCN(C1CCCC1)C3 has a documented % inhibition Apol 90' of 90.7443
